List of Kd values.
Target: T1, AFP158/HLA-A*02:01 complex (human)
T1 construct: flowed as analyte in SPR
Experiment: SPR, crude scFv captured, pMHC analyte;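 further: complex injected at several concentrations over the chip, association phase then running buffer for dissociation, KD derived from on- and off-rates computed from both curves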
Please respond with the number in nM and leave the unit unwritten.

AS170036 VL1VH1-57K98F108D (scFv, also called 68-AS170036 VL1VH1-57K98F108D) scFv: QSALTQPRSVSGSPGQSVTISCAGTSSDVGSENYVSWYQQHPGKAPKLMIYQVNKRASGVPDRFSGSKSGNTASLTISGLQAEDEADYYCASYRSSDFNIVFGGGTKLTVLGGGGSGGGGSGGGGSEVQLVESGGGLVQPGGSLRLSCAASGFTFSSYAMSWVRQAPGKGLEWVSTINSGTGKPYYADSVKGRFTISRDNSKNTLYLQMNSLRAEDTAVYYCAKNFFDGSWFLDPPAMDYWGQGTLVTVSSHHHHHH ... 4.1
AS170036 VL1VH1-57K98F108S (scFv, also called 69-AS170036 VL1VH1-57K98F108S) scFv: QSALTQPRSVSGSPGQSVTISCAGTSSDVGSENYVSWYQQHPGKAPKLMIYQVNKRASGVPDRFSGSKSGNTASLTISGLQAEDEADYYCASYRSSDFNIVFGGGTKLTVLGGGGSGGGGSGGGGSEVQLVESGGGLVQPGGSLRLSCAASGFTFSSYAMSWVRQAPGKGLEWVSTINSGTGKPYYADSVKGRFTISRDNSKNTLYLQMNSLRAEDTAVYYCAKNFFDGSWFLSPPAMDYWGQGTLVTVSSHHHHHH ... 8.3
AS170036 VL1VH1-56Y98I108A (scFv, also called 43-AS170036 VL1VH1-56Y98I108A) scFv: QSALTQPRSVSGSPGQSVTISCAGTSSDVGSENYVSWYQQHPGKAPKLMIYQVNKRASGVPDRFSGSKSGNTASLTISGLQAEDEADYYCASYRSSDINIVFGGGTKLTVLGGGGSGGGGSGGGGSEVQLVESGGGLVQPGGSLRLSCAASGFTFSSYAMSWVRQAPGKGLEWVSTINSGTYSPYYADSVKGRFTISRDNSKNTLYLQMNSLRAEDTAVYYCAKNFFDGSWFLAPPAMDYWGQGTLVTVSSHHHHHH ... 1.1
AS170036 VL1VH1-57H98F108A (scFv, also called 58-AS170036 VL1VH1-57H98F108A) scFv: QSALTQPRSVSGSPGQSVTISCAGTSSDVGSENYVSWYQQHPGKAPKLMIYQVNKRASGVPDRFSGSKSGNTASLTISGLQAEDEADYYCASYRSSDFNIVFGGGTKLTVLGGGGSGGGGSGGGGSEVQLVESGGGLVQPGGSLRLSCAASGFTFSSYAMSWVRQAPGKGLEWVSTINSGTGHPYYADSVKGRFTISRDNSKNTLYLQMNSLRAEDTAVYYCAKNFFDGSWFLAPPAMDYWGQGTLVTVSSHHHHHH ... 1.5

Now look at this one.
Inquiry: What measured Kd goes with AS170036 VL1VH1-57H98Q108S (scFv, also called 66-AS170036 VL1VH1-57H98Q108S) scFv: QSALTQPRSVSGSPGQSVTISCAGTSSDVGSENYVSWYQQHPGKAPKLMIYQVNKRASGVPDRFSGSKSGNTASLTISGLQAEDEADYYCASYRSSDQNIVFGGGTKLTVLGGGGSGGGGSGGGGSEVQLVESGGGLVQPGGSLRLSCAASGFTFSSYAMSWVRQAPGKGLEWVSTINSGTGHPYYADSVKGRFTISRDNSKNTLYLQMNSLRAEDTAVYYCAKNFFDGSWFLSPPAMDYWGQGTLVTVSSHHHHHH ?
Reply text: 4
